# SYSTEM UNDER TEST: cannabinoid CB1 (CB1R) receptor (Homo sapiens (Human), UniProt P21554)
# Sequence (P21554 whole entry): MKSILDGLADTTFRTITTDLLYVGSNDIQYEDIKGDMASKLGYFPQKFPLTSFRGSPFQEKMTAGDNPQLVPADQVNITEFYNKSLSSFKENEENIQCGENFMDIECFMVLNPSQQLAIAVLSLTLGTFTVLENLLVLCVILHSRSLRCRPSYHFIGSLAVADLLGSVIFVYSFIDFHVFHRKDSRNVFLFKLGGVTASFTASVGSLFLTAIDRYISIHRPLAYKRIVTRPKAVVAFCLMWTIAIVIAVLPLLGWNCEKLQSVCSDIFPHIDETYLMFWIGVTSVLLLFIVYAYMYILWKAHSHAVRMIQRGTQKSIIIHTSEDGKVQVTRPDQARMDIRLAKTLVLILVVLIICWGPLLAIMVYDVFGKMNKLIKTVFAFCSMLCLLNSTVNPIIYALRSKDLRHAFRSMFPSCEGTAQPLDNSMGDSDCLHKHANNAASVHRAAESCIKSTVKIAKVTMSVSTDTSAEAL
# PROTOCOL NOTES: radioligand binding assay

# SMILES NOTATION, SYSTEM UNDER TEST, IC50
data = [
    ("C#CCO[C@@H]1CC[C@H](Cc2ccccc2)N(C(=O)n2ncc(C(O)(c3ccc(F)cc3)c3ccc(F)cc3)n2)C1", "cannabinoid CB1 (CB1R) receptor (Homo sapiens (Human), UniProt P21554)", "> 1000 nM"),
]

====

# SYSTEM UNDER TEST: DAGLα (hDAGLα-FLAG) (Homo sapiens (Human), UniProt Q9Y4D2)
# Sequence (Q9Y4D2 whole entry): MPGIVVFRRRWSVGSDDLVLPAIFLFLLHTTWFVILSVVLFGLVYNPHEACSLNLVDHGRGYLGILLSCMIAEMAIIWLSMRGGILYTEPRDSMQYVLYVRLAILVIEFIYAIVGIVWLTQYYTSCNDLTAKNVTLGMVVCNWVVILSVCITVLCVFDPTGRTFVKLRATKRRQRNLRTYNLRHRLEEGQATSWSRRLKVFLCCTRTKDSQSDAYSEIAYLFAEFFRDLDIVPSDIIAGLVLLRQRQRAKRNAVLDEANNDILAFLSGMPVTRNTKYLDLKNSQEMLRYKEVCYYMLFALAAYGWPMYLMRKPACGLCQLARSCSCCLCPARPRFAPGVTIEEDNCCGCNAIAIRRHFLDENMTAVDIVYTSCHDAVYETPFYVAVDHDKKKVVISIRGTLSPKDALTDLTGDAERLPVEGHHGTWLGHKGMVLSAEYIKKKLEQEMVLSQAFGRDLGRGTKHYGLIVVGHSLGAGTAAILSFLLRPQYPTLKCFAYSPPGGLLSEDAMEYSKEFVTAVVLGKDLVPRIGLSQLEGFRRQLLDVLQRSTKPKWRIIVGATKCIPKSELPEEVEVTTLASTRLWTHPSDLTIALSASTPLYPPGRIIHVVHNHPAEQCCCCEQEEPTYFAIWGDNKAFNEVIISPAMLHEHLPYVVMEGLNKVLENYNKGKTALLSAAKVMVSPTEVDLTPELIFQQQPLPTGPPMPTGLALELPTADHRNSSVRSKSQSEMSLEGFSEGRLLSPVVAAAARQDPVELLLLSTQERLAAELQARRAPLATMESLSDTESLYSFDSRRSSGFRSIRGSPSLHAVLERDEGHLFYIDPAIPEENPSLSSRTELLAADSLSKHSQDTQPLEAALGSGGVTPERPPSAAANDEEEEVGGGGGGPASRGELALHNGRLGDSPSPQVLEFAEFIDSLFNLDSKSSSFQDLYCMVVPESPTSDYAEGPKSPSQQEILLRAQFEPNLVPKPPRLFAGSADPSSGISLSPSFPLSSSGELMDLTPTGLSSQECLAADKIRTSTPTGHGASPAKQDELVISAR
# PROTOCOL NOTES: competitive ABPP, membrane proteome of transfected HEK293T cells
# Type: biochemical
# MEASUREMENT PARAMETERS: read-out: DAGLα IC50

# COMPOUND, IC50
data = [
    ("CC(C)(C)CN(CCc1cccnc1)C(=O)n1ncc(-c2ccc(OC(F)(F)F)cc2)n1", "400 to 2000 nM"),
    ("O=C(N(CCc1ccccc1)C1CC1)n1ncc(-c2ccc(OC(F)(F)F)cc2)n1", "2000 to 10000 nM"),
    ("O=C(N1CCCCC1Cc1ccccc1)n1cc(-c2ccc(Br)nc2)nn1 (stereo not shown)", "≤ 400 nM"),
    ("COc1cccc(OC)c1-c1ccc(-c2cn(C(=O)N3CCCCC3Cc3ccccc3)nn2)cc1 (stereo not shown)", "≤ 400 nM"),
]

====

# SYSTEM UNDER TEST: cannabinoid CB1 (CB1R) receptor (Homo sapiens (Human), UniProt P21554)
# PROTOCOL NOTES: radioligand binding assay
# MEASUREMENT PARAMETERS: radioligand binding assay; read-out: IC50, CB1R binding
PROPERTY: IC50

# COMPOUND, ENDPOINT RESULT
data = [
    ("CC(C)(C)OC(=O)N1CCN(C(=O)n2cc(-c3ccc(OC(F)(F)F)cc3)nn2)C(Cc2ccccc2)C1 (stereo not shown)", "> 1000 nM"),
]

====

# SYSTEM UNDER TEST: DAGLα (hDAGLα-FLAG) (Homo sapiens (Human), UniProt Q9Y4D2)
# PROTOCOL NOTES: competitive ABPP, membrane proteome of transfected HEK293T cells
# Assay type: biochemical
# MEASUREMENT PARAMETERS: ABPP method, n=3; read-out: IC50, DAGLα
# Procedure: Compounds 19 and 20 were tested for in vitro inhibition of DAGLα and DAGLβ as measured by competitive activity-based protein profiling (ABPP) of […] using a HT-01 probe (targets DAGLα and DAGLβ) and a FP-Rh probe (targets serine hydrolases). […] The percentage of DAGL activity remaining in the assayed samples was determined by measuring the integrated optical intensity of the fluorescent protein bands of the Western Blot using image lab 4.1. […]

# MOLECULE, IC50 [nM]
data = [
    ("COc1cc(OC)c(-c2ccc(-c3cn(C(=O)N4CCCCC4Cc4ccccc4)nn3)cc2)c(OC)c1 (centres unmarked)", 16),
    ("COc1cncc(OC)c1-c1ccc(-c2cn(C(=O)N3CCCCC3Cc3ccccc3)nn2)cc1 (centres unmarked)", 9.5),
]

====

# SYSTEM UNDER TEST: DAGLα (hDAGLα-FLAG) (Homo sapiens (Human), UniProt Q9Y4D2)
# PROTOCOL NOTES: competitive ABPP, membrane proteome of transfected HEK293T cells
# Format: biochemical
# MEASUREMENT PARAMETERS: 3.2 nM; read-out: DAGLα % inh. 3.2 nM

# SMILES NOTATION, inhibition at 0.0032 µM
records = [
    ("CO[C@@H]1CC[C@H](Cc2ccccc2)N(C(=O)n2ncc(-c3ccc(OC(F)(F)F)cc3)n2)C1", "0 to 25%"),
    ("O=C(N1CCC=C[C@@H]1COCc1ccccc1)n1ncc(-c2ccc(OC(F)(F)F)cc2)n1", "0 to 25%"),
    ("O=C(N1CCCC[C@@H]1Cc1ccccc1)n1ncc(-c2ccc(OC(F)(F)F)cc2)n1", "0 to 25%"),
    ("O=C(N1C[C@H](OCC2CC2)CC[C@@H]1Cc1ccccc1)n1cc(-c2ccc(OC(F)(F)F)cc2)nn1", "≥ 75%"),
]

====

# SYSTEM UNDER TEST: cannabinoid CB2 (CB2R) receptor (Homo sapiens (Human))
# Sequence (P34972 whole entry): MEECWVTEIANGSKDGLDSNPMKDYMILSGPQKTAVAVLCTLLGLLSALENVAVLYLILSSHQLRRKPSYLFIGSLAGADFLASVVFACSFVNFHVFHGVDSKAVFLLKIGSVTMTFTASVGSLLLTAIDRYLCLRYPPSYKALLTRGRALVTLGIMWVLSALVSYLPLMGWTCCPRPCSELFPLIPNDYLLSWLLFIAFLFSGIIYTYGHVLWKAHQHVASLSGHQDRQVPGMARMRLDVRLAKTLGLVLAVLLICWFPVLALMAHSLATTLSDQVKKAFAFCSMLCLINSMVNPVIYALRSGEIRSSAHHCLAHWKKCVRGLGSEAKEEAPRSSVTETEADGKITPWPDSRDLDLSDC
# PROTOCOL NOTES: radioligand binding assay
# MEASUREMENT PARAMETERS: radioligand binding assay; read-out: IC50, CB2R binding

# MOLECULE, IC50
data = [
    ("CC(C)(C)OC(=O)N1CCN(C(=O)n2cc(-c3ccc(OC(F)(F)F)cc3)nn2)C(Cc2ccccc2)C1 (stereo not shown)", "> 1000 nM"),
]

====

Form field: inhibition at 0.0032 µM (one value per entry).
# SYSTEM UNDER TEST: DAGLα (hDAGLα-FLAG) (Homo sapiens (Human), UniProt Q9Y4D2)
# PROTOCOL NOTES: competitive ABPP, membrane proteome of transfected HEK293T cells
# Type: biochemical
# MEASUREMENT PARAMETERS: 3.2 nM; read-out: DAGLα % inh. 3.2 nM
# Method: Compounds 19 and 20 were tested for in vitro inhibition of DAGLα and DAGLβ as measured by competitive activity-based protein profiling (ABPP) of […] using a HT-01 probe (targets DAGLα and DAGLβ) and a FP-Rh probe (targets serine hydrolases). […] The percentage of DAGL activity remaining in the assayed samples was determined by measuring the integrated optical intensity of the fluorescent protein bands of the Western Blot using image lab 4.1. […]

# COMPOUND, SYSTEM UNDER TEST, inhibition at 0.0032 µM
records = [
    ("O=C(N1CCC=C[C@H]1COCc1ccccc1)n1cc(-c2ccc(OC(F)(F)F)cc2)nn1", "DAGLα (hDAGLα-FLAG) (Homo sapiens (Human), UniProt Q9Y4D2)", "0 to 25%"),
    ("CO[C@H]1CC[C@H](Cc2ccccc2)N(C(=O)n2ncc(-c3ccc(OC(F)(F)F)cc3)n2)C1", "DAGLα (hDAGLα-FLAG) (Homo sapiens (Human), UniProt Q9Y4D2)", "0 to 25%"),
    ("O=C(N1C[C@H](OCC2CC2)CC[C@@H]1Cc1ccccc1)n1ncc(-c2ccc(OC(F)(F)F)cc2)n1", "DAGLα (hDAGLα-FLAG) (Homo sapiens (Human), UniProt Q9Y4D2)", "0 to 25%"),
    ("O=C(N1CCC=C[C@H]1COCc1ccccc1)n1ncc(-c2ccc(OC(F)(F)F)cc2)n1", "DAGLα (hDAGLα-FLAG) (Homo sapiens (Human), UniProt Q9Y4D2)", "0 to 25%"),
    ("CO[C@H]1CC[C@H](Cc2ccccc2)N(C(=O)n2cc(-c3ccc(OC(F)(F)F)cc3)nn2)C1", "DAGLα (hDAGLα-FLAG) (Homo sapiens (Human), UniProt Q9Y4D2)", "25 to 50%"),
    ("O=C(N1C[C@H](O)C=C[C@@H]1COCc1ccccc1)n1cc(-c2ccc(OC(F)(F)F)cc2)nn1", "DAGLα (hDAGLα-FLAG) (Homo sapiens (Human), UniProt Q9Y4D2)", "0 to 25%"),
    ("O=C(N1CCCCC1COc1ccccc1)n1ncc(-c2ccc(OC(F)(F)F)cc2)n1 (stereo not drawn)", "DAGLα (hDAGLα-FLAG) (Homo sapiens (Human), UniProt Q9Y4D2)", "0 to 25%"),
    ("O=C(N1C[C@H](O)C=C[C@@H]1Cc1ccccc1)n1cc(-c2ccc(OC(F)(F)F)cc2)nn1", "DAGLα (hDAGLα-FLAG) (Homo sapiens (Human), UniProt Q9Y4D2)", "0 to 25%"),
    ("O=C(N1CCC=C[C@@H]1COCc1ccccc1)n1cc(-c2ccc(OC(F)(F)F)cc2)nn1", "DAGLα (hDAGLα-FLAG) (Homo sapiens (Human), UniProt Q9Y4D2)", "0 to 25%"),
    ("O=C(N1C[C@H](O)C=C[C@@H]1Cc1ccccc1)n1ncc(-c2ccc(OC(F)(F)F)cc2)n1", "DAGLα (hDAGLα-FLAG) (Homo sapiens (Human), UniProt Q9Y4D2)", "0 to 25%"),
    ("CO[C@@H]1CC[C@H](Cc2ccccc2)N(C(=O)n2cc(-c3ccc(OC(F)(F)F)cc3)nn2)C1", "DAGLα (hDAGLα-FLAG) (Homo sapiens (Human), UniProt Q9Y4D2)", "25 to 50%"),
    ("O=C(N1C[C@@H](OCC2CC2)CC[C@@H]1Cc1ccccc1)n1cc(-c2ccc(OC(F)(F)F)cc2)nn1", "DAGLα (hDAGLα-FLAG) (Homo sapiens (Human), UniProt Q9Y4D2)", "25 to 50%"),
    ("O=C(N1C[C@@H](O)C=C[C@@H]1Cc1ccccc1)n1ncc(-c2ccc(OC(F)(F)F)cc2)n1", "DAGLα (hDAGLα-FLAG) (Homo sapiens (Human), UniProt Q9Y4D2)", "0 to 25%"),
    ("O=C(N1CCCCC1COc1ccccc1)n1cc(-c2ccc(OC(F)(F)F)cc2)nn1 (stereo not drawn)", "DAGLα (hDAGLα-FLAG) (Homo sapiens (Human), UniProt Q9Y4D2)", "0 to 25%"),
    ("O=C(N1C[C@H](O)C=C[C@@H]1COCc1ccccc1)n1ncc(-c2ccc(OC(F)(F)F)cc2)n1", "DAGLα (hDAGLα-FLAG) (Homo sapiens (Human), UniProt Q9Y4D2)", "0 to 25%"),
]

Origin of measurements: patent US10583137B2
